- tested_target: T1, rh integrin α4β7 (R&D Systems #5397-A30) (human, UniProt P13612 34-970; P26010 20-723)
- T1 construct: bought; coated on a nickel coated plate; also called immobilized α4β7; immobilized α4β7 integrin protein
- assay_text: competition ELISA vs MAdCAM-1
pIC50: −log10 of the molar value. Bridge positions count the residues as written; N and C are the ends. Square brackets hold non-standard residues; d marks the D form. NMeR = CN[C@@H](CCCNC(=N)N)C(=O)O; Pen = CC(C)(S)[C@H](N)C(=O)O
pIC50 overview
measured_parameter: pIC50

[[record]]
binder = "Ac-C[NMeR]SDTL[Pen][dK]-NH2 (disulfide 1-7; SMILES CC(=O)N[C@H]1CSSC(C)(C)[C@@H](C(=O)N[C@H](CCCCN)C(N)=O)NC(=O)[C@H](CC(C)C)NC(=O)[C@H]([C@@H](C)O)NC(=O)[C@H](CC(=O)O)NC(=O)[C@H](CO)NC(=O)[C@H](CCCNC(=N)N)N(C)C1=O) [SEQ ID NO: 202]"
endpoint_value = 7.06

[[record]]
binder = "Ac-CRSDTLCGEK-NH2 (disulfide 1-7 (inferred); also: dimer linked by PEG25, attachment not given here, also called peptide 197) [SEQ ID NO: 197]"
endpoint_value = 7.44

[[record]]
binder = "Ac-CRSDTLCGEK-NH2 (disulfide 1-7 (inferred), also called peptide 196) [SEQ ID NO: 196]"
endpoint_value = 7.06

